Where do the numbers come from? From patent US9980943B2.

We begin with a simple list: items and their reported Burkin Assay in Myotubes (signal relative to DMSO).
# System: α7 integrin (LacZ reporter in α7+/LacZ myotubes)
# Assay Comment: Myotube α7 integrin FDG assay (Burkin assay in myotubes, 96-well)
# Type: cell-based, mouse
# Run Conditions: 20 uM, myotubes
Answer as a number with no unit attached.

Would you please look over these solved cases?
- Structure String: "O=C(N/N=C/c1cn[nH]c1-c1ccc(F)cc1)c1ccncc1"
  Target: "α7 integrin (LacZ reporter in α7+/LacZ myotubes)"
  Numeric Result: 0.6986
- Structure String: "C[C@H]1CNC(=O)c2c(C(=O)Nc3ccc(CNC(=O)OC(C)(C)C)cc3)ncn21"
  Target: "α7 integrin (LacZ reporter in α7+/LacZ myotubes)"
  Numeric Result: 0.7372
- Structure String: "CCOc1cc(/C=C2\\C(=O)ON=C2c2ccccc2)ccc1OC"
  Target: "α7 integrin (LacZ reporter in α7+/LacZ myotubes)"
  Numeric Result: 0.5465
- Structure String: "Cc1cc(C)cc(-n2nnc(C(=O)NCc3ccccc3Cl)c2N)c1"
  Target: "α7 integrin (LacZ reporter in α7+/LacZ myotubes)"
  Numeric Result: 0.8175
- Structure String: "Cc1ccc(-c2onc3ccc(C(=O)/C=C/N(C)C)cc23)cc1"
  Target: "α7 integrin (LacZ reporter in α7+/LacZ myotubes)"
  Numeric Result: 0.8218

// `COCCN1C=C(C(=O)OC)C(c2ccccc2Cl)C(C(=O)OC)=C1` : Burkin Assay in Myotubes (signal relative to DMSO) value = 0.938

Burkin Assay in Myotubes (signal relative to DMSO) recorded for this molecule, `O=C(COC(=O)c1cc2ccccc2oc1=O)Nc1ccc(F)cc1F` , is 1.107

The measured Burkin Assay in Myotubes (signal relative to DMSO) associated with `O=C(/C(=C(/[O-])c1ccccc1)[n+]1ccccc1)c1ccc([N+](=O)[O-])cc1` reads 0.9072
